# Test system: NCI-H460 lung
# experimentNotes: NCI-60 one-dose screen, 48 h
# measurementContext: 10 µM unless noted
The panel holds about 83,000 compounds, 20% with a hit somewhere; the sample as a whole holds those more often. Calls of active or inactive are those of the source. How the source made its calls: active means growth percent below 10; inactive means the rest.
Allowed answers: YES for active, NO for inactive

Consider the following illustrative entries.
compound	assignedClass
COc1cc2nc(SCc3cc(OC)c(OC)c(OC)c3)n(Cc3ccccc3)c(=O)c2cc1OC	NO
COc1ccc(-c2nc3sccn3c2-c2ccnc(NCCCNS(=O)(=O)c3ccc4ccccc4c3)n2)cc1	NO

Now consider the entry below.
Fill in: this test's call for COC(=O)c1cc(-c2cccs2)c(C#N)c(N)c1C#N is ___ NO

Recorded values, source PubChem BioAssay (NCI).
